System Tested: human TASK-1 (Homo sapiens (Human), UniProt O14649)
Sequence (O14649 whole entry): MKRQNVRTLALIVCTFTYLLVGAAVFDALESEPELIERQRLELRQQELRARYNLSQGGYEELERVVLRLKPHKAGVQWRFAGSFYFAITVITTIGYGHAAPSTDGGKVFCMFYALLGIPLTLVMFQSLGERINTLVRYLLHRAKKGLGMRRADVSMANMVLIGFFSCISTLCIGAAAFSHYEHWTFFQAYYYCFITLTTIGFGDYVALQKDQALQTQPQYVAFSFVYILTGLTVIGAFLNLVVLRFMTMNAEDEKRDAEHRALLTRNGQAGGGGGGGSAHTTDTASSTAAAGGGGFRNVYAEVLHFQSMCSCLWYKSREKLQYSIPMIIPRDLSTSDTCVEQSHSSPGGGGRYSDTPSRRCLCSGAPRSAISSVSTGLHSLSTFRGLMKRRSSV
Assay Details: Inhibition of recombinant TASK-1 in stably transfected CHO cells (voltage-sensitive dye, KCl depolarization)
Type: cell-based
Assay Context: depolarization by 40 mM potassium chloride
Procedure: B-2. Inhibition of Recombinant TASK-1 and TASK-3 In Vitro The investigations on the inhibition of the recombinant TASK-1 and TASK-3 channels were conducted using stably transfected CHO cells. […] 6 (5), 305-312 (2001); Molecular Devices FLIPR Application Note: Measuring membrane potential using the FLIPR® membrane potential assay kit on Fluorometric Imaging Plate Reader (FLIPR®) systems, http://www.moleculardevices.com/reagents-supplies/assay-kits/ion-channels/flipr-membrane-potential-assay-kits]. […]
Entries are sorted into classes by IC50 as follows: low band (below 2000 nM), middle band (2000 nM to below 6000 nM), high band (6000 nM or more)

Input: Which band does O=C(C1CCCC1)N1C2CCC1CN(Cc1c(-c3ccc(C4CC4)cc3)nc3ncccn13)C2 fall in?
Output: low band
